# Lookup of reported growth keyed by entry
# Tested on: NCI-H23 lung
# assayProtocol: NCI-60 one-dose screen, 48 h (100 = growth as untreated, 0 = no growth, -100 = all killed)
# setupConditions: 10 µM unless noted
This is part of a sample that, as a whole, favours compounds with a hit. Of some 83,000 tested, about 20% had one in any assay. Active and inactive are the calls of the source. Rule for the calls: active = growth percent below 10; inactive = the rest.

* O=C(N/N=C/c1c[nH]c2ccccc12)Nc1ccc(F)c(Cl)c1 | 28.8% (inactive)
* CC1=C(C(=O)OC(C)C)C(c2ccc(O)cc2)NC(=O)N1 (configuration not stated) | 101% (inactive)
* Nc1cc(-c2c[nH]c3ccc(Cl)cc23)nc2cc(-c3c[nH]c4ccccc34)nn12 | -56% (active)
* COC(=O)c1cccc(Oc2ccc(NC(=O)Nc3cc(C(F)(F)F)ccc3F)cc2)c1 | 69.3% (inactive)
* CCOc1ccccc1[C@H]1C(C(=O)c2ccc(Cl)cc2)C2(N[C@@H]1c1ccccc1)C(=O)Nc1ccccc12 (some centres not stated) | 4.22% (active)

Name the recorded growth for Fc1ccc(F)c(CNc2nc(SCCN3CCOCC3)nc3c2cnn3CC(Cl)c2ccc(Br)cc2)c1 (configuration not stated) .
40.3% (inactive)

What would you report for `COc1cccc(NC(=O)c2ccc(NC(=O)CCl)s2)c1` ?
11.9% (inactive)
